Target Under Test: SARS-CoV-2 M^pro (Severe acute respiratory syndrome coronavirus 2)
Assay type: biochemical
Run Parameters: 10 μM
Observable: inhibitory effect towards M^pro (in words)

Molecule	Observed Result
CC1=CC(=O)c2c(O)cccc2C1=O	inactive
CC1=CC(=O)c2ccccc2C1=O [Compound 3, 2-Methyl-1,4-naphthoquinone, reference compound]	inactive

All values here come from paper PMC8372460.
